Biological target: recombinant human MAO-B (Homo sapiens, UniProt P27338)
Construct: purchased Sigma-Aldrich
Sequence (P27338 whole entry): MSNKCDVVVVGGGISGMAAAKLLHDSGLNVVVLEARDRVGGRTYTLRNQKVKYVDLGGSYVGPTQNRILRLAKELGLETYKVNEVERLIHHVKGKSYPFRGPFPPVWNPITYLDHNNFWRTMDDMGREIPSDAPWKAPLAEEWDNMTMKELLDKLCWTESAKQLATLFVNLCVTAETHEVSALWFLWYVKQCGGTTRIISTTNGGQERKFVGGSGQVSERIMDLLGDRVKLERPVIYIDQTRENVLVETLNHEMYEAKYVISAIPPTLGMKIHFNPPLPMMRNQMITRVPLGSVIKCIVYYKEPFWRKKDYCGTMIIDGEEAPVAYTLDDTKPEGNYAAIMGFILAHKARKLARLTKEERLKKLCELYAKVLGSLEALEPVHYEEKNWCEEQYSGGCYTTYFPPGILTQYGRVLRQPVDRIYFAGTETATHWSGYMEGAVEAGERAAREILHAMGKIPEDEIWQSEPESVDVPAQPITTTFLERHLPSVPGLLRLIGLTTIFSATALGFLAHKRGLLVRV
Experiment: biochemical
Type: biochemical
pIC50: −log10 of the molar value.

COMPOUND	pIC50
CC1(C)[C@@H](O)CC[C@]2(C)[C@H]3C(=O)C=C4[C@@H]5C[C@@](C)(C(=O)O)CC[C@]5(C)CC[C@@]4(C)[C@]3(C)CC[C@@H]12 [Glycyrrhetinic acid, glycyrrhetinic acid]	< 4.40
COc1c(CC=C(C)C)c(O)cc2oc(=O)c3c4ccc(O)cc4oc3c12 [GC, glycyrol]	4.53
CC1(C)[C@@H](O[C@H]2O[C@H](C(=O)O)[C@@H](O)[C@H](O)[C@H]2O[C@@H]2O[C@H](C(=O)O)[C@@H](O)[C@H](O)[C@H]2O)CC[C@]2(C)[C@H]3C(=O)C=C4[C@@H]5C[C@@](C)(C(=O)O)CC[C@]5(C)CC[C@@]4(C)[C@]3(C)CC[C@@H]12 [Glycyrrhizin, glycyrrhizin]	< 4.40
O=C(/C=C/c1ccc(O[C@@H]2O[C@H](CO)[C@@H](O)[C@H](O)[C@H]2O)cc1)c1ccc(O)cc1O [Isoliquiritin, isoliquiritin]	< 4.40
O=C1C[C@@H](c2ccc(O[C@@H]3O[C@H](CO)[C@@H](O)[C@H](O)[C@H]3O)cc2)Oc2cc(O)ccc21 [Liquiritin, liquiritin]	< 4.40

----------
Target: BChE from equine serum (Equus caballus, UniProt P81908)
Construct: BChE from equine serum; purchased Sigma-Aldrich; host or cells: equine serum
Sequence (P81908 whole entry): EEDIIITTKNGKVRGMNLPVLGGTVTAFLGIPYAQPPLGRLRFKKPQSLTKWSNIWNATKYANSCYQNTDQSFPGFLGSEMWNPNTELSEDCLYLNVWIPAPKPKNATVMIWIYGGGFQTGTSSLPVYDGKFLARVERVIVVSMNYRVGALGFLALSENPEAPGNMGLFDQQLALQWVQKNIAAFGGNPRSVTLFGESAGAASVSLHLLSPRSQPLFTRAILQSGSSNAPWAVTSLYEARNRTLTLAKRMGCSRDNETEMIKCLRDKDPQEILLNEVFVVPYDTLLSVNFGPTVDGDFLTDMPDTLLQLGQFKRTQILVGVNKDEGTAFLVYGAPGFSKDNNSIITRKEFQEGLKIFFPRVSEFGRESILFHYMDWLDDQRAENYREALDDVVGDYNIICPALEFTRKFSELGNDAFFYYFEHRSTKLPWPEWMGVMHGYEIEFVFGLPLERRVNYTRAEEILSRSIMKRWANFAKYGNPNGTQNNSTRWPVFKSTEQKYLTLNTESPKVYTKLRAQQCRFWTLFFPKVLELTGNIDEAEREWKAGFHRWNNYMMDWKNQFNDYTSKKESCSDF
Test: BChE inhibition assay (Ellman, BTCI) and kinetics
Type: biochemical
Conditions: read-out: Residual Activity at 10 µM (%) BChE

COMPOUND STRING	SCALE UNIT	remaining activity at 10 µM
CC1(C)[C@@H](O)CC[C@]2(C)[C@H]3C(=O)C=C4[C@@H]5C[C@@](C)(C(=O)O)CC[C@]5(C)CC[C@@]4(C)[C@]3(C)CC[C@@H]12	%	95
O=C1C[C@@H](c2ccc(O)cc2)Oc2cc(O)ccc21	%	82.5
O=C1C[C@@H](c2ccc(O[C@@H]3O[C@H](CO)[C@@H](O)[C@H](O)[C@H]3O)cc2)Oc2cc(O)ccc21	%	95.5
COc1c(CC=C(C)C)c(O)cc2oc(=O)c3c4ccc(O)cc4oc3c12	%	44.6

----------
Biological target: BChE from equine serum (Equus caballus)
Construct: BChE from equine serum; purchased Sigma-Aldrich; host or cells: equine serum
Experiment: BChE inhibition assay (Ellman, BTCI) and kinetics
Type: biochemical
Details: read-out: Residual Activity at 10 µM (%) BChE

COMPOUND STRING	remaining activity at 10 µM [%]
CC1(C)[C@@H](O[C@H]2O[C@H](C(=O)O)[C@@H](O)[C@H](O)[C@H]2O[C@@H]2O[C@H](C(=O)O)[C@@H](O)[C@H](O)[C@H]2O)CC[C@]2(C)[C@H]3C(=O)C=C4[C@@H]5C[C@@](C)(C(=O)O)CC[C@]5(C)CC[C@@]4(C)[C@]3(C)CC[C@@H]12	82.3
O=C(/C=C/c1ccc(O[C@@H]2O[C@H](CO)[C@@H](O)[C@H](O)[C@H]2O)cc1)c1ccc(O)cc1O	91.9

----------
Target: recombinant human MAO-A (Homo sapiens, UniProt P21397)
Sequence (P21397 whole entry): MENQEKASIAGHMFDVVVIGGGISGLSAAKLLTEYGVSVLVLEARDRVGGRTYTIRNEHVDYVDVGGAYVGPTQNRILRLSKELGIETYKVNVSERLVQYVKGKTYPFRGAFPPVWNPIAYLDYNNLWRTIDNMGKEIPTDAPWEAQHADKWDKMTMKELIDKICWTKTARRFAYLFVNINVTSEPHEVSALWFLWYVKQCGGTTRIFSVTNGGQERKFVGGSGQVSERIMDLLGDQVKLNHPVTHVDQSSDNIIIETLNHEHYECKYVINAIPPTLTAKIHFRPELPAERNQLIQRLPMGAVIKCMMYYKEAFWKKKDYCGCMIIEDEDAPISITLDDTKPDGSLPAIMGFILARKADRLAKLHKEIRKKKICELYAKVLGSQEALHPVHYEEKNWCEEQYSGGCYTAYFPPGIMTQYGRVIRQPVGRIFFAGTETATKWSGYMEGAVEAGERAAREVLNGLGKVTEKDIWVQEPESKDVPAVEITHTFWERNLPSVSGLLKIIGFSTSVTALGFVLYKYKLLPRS
Test: biochemical
pIC50: −log10 of the molar value.
The molecules listed here are annotated with their pIC50.

MOLECULE	pIC50
O=C1C[C@@H](c2ccc(O)cc2)Oc2cc(O)ccc21 [LG, Liquiritigenin]	6.57
CC1(C)[C@@H](O)CC[C@]2(C)[C@H]3C(=O)C=C4[C@@H]5C[C@@](C)(C(=O)O)CC[C@]5(C)CC[C@@]4(C)[C@]3(C)CC[C@@H]12 [Glycyrrhetinic acid, glycyrrhetinic acid]	< 4.40
CC1(C)[C@@H](O[C@H]2O[C@H](C(=O)O)[C@@H](O)[C@H](O)[C@H]2O[C@@H]2O[C@H](C(=O)O)[C@@H](O)[C@H](O)[C@H]2O)CC[C@]2(C)[C@H]3C(=O)C=C4[C@@H]5C[C@@](C)(C(=O)O)CC[C@]5(C)CC[C@@]4(C)[C@]3(C)CC[C@@H]12 [Glycyrrhizin, glycyrrhizin]	< 4.40
O=C(/C=C/c1ccc(O[C@@H]2O[C@H](CO)[C@@H](O)[C@H](O)[C@H]2O)cc1)c1ccc(O)cc1O [Isoliquiritin, isoliquiritin]	< 4.40
COc1c(CC=C(C)C)c(O)cc2oc(=O)c3c4ccc(O)cc4oc3c12 [GC, glycyrol]	< 4.40
O=C1C[C@@H](c2ccc(O[C@@H]3O[C@H](CO)[C@@H](O)[C@H](O)[C@H]3O)cc2)Oc2cc(O)ccc21 [Liquiritin, liquiritin]	< 4.40

Cited source: paper PMC7504216
